Target: BmrA (Bacillus subtilis)
Construct: His tag; made in house; host or cells: E. coli C41(DE3)
Experiment: ATPase activity of BmrA after addition of detergents
Format: biochemical, bacterial; produced in E. coli C41 DE3
Conditions: at extracting concentrations; relative to protein without compound
experimental.readout: change of the ATPase activity of BmrA on extraction (×)
Expressed in ×, but write only the number.

Sample answers from the record:
- molecule: "CCCCCCCCCCCC(=O)N[C@@H](COCc1cn(CCO[C@@H]2OC(CO)[C@@H](O)C(O)C2O)nn1)C(=O)N[C@H](CCC(=O)O)C(=O)O (stereo partly drawn)"
  tested.system: "BmrA (Bacillus subtilis)"
  value.unit: "×"
  test.value: 1.5
- molecule: "CCCCCCCCCCCCCC(=O)N[C@@H](COCc1cn(CCO[C@@H]2OC(CO)[C@@H](O)C(O)C2O)nn1)C(=O)N[C@H](CCC(=O)O)C(=O)O (stereo partly drawn)"
  tested.system: "BmrA (Bacillus subtilis)"
  value.unit: "×"
  test.value: 1.5

What measured change of the ATPase activity of BmrA on extraction is associated with CCCCCCCCCCCCCC(=O)N[C@@H](COCc1cn(CCO[C@@H]2OC(CO)[C@@H](O[C@H]3OC(CO)[C@@H](O)C(O)C3O)C(O)C2O)nn1)C(=O)N[C@H](CCC(=O)O)C(=O)O (stereo partly drawn) on BmrA (Bacillus subtilis)?
2

Same lookup for CCCCCCCCCCCCCC(=O)N[C@@H](COCc1cn(CCOCCOCCOCCOCCOCCOC)nn1)C(=O)N[C@H](CCC(=O)O)C(=O)O , please.
1.5

====

Molecular target: BmrA (Bacillus subtilis)
Construct: His tag; made in house; host or cells: E. coli C41(DE3)
Assay: Extraction of BmrA from membranes (SDS-PAGE of supernatant)
Set-up: species or system bacterial; overexpressed in E. coli C41DE3
Conditions: detergent 10 g/l unless indicated otherwise; 2 h at 4° C.
Residues, ends and D or L forms follow the SMILES beside them.

- molecule: "CCCCCCCCCC(=O)N[C@@H](CO)C(=O)N[C@H](CCC(=O)O)C(=O)O [Compound 2.3d] (HELM PEPTIDE1{[CCCCCCCCCC(=O)[*:2]].S.[dE]}$$$$V2.0)"
  extraction of BmrA: "extracting"
- molecule: "CCCCCCCCCCCCCC(=O)N[C@@H](COCc1cn(CCOCCOCCOCCOCCOCCOC)nn1)C(=O)N[C@H](CCC(=O)O)C(=O)O"
  extraction of BmrA: "extracting"
- molecule: "CCCCCCCCCCCCCCCCCCC(=O)N[C@@H](COCc1cn(CCOCCOCCOCCOCCOCCOC)nn1)C(=O)N[C@H](CCC(=O)O)C(=O)O"
  extraction of BmrA: "extracting"

====

Target: AcrB (Escherichia coli, UniProt P31224)
Construct: made in house; host or cells: E. coli C41(DE3)
Sequence (P31224 whole entry): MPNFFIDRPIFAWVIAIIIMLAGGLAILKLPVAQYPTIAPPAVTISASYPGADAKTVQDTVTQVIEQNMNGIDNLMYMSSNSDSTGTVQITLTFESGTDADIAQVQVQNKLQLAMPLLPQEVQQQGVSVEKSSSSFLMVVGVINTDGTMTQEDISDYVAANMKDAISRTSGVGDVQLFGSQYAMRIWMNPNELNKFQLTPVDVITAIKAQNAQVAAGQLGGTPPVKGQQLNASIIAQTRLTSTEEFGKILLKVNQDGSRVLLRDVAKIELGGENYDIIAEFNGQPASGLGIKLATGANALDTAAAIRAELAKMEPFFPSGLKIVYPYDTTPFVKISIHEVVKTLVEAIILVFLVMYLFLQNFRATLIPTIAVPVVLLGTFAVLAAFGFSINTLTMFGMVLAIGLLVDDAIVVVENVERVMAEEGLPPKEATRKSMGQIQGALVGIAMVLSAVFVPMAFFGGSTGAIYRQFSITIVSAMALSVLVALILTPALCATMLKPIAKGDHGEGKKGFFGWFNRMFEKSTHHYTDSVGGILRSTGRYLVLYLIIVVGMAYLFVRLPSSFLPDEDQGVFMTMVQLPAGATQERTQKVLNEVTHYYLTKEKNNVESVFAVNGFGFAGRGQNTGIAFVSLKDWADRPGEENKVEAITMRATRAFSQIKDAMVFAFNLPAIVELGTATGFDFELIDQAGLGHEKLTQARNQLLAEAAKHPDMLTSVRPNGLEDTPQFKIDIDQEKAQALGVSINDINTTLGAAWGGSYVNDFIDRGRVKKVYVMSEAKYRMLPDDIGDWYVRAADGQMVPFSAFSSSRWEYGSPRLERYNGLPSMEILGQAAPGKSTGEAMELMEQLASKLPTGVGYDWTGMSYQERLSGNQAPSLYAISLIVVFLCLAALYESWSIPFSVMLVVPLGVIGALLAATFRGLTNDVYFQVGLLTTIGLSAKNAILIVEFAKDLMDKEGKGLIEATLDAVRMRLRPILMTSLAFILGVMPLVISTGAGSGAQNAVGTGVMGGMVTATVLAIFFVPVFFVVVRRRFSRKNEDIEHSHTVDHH
Assay: Extraction of AcrB from membranes (SDS-PAGE of supernatant)
Parameters: species or system bacterial; same expression system (E. coli C41DE3)
Conditions: detergent 10 g/l unless indicated otherwise; 2 h at 4° C.
Residues, ends and D or L forms follow the SMILES beside them. *: point of attachment. Palmitoyl = CCCCCCCCCCCCCCCC(=O)*

- molecule: "CCCCCCCCCCCCCCCCCCC(=O)N[C@@H](COCc1cn(CCOCCOCCOCCOCCOCCOC)nn1)C(=O)N[C@H](CCC(=O)O)C(=O)O"
  extraction of AcrB: "extracting"
- molecule: "CCCCCCCC(=O)N[C@@H](CO)C(=O)N[C@H](CCC(=O)O)C(=O)O [Compound 2.3b] (HELM PEPTIDE1{[CCCCCCCC(=O)[*:2]].S.[dE]}$$$$V2.0)"
  extraction of AcrB: "extracting"
- molecule: "CCCCCCCCCCCCCCCCCCC(=O)N[C@@H](COCc1cn(CCO[C@@H]2OC(CO)[C@@H](O)C(O)C2O)nn1)C(=O)N[C@H](CCC(=O)O)C(=O)O (some centres unmarked)"
  extraction of AcrB: "extracting"
- molecule: "CCCCCCCCCCCCCCCC(=O)NC(CC(=O)O)C(=O)NC(CCC(=O)O)C(=O)O (stereo not drawn) [Compound 4.5d] (Palmitoyl-Asp-Glu-OH; configuration not given here)"
  extraction of AcrB: "extracting"

====

Molecular target: AcrB (Escherichia coli, UniProt P31224)
Construct: made in house; host or cells: E. coli C41(DE3)
Test: Extraction of AcrB from membranes (SDS-PAGE of supernatant)
Parameters: species or system bacterial; same expression system (E. coli C41DE3)
Details: detergent 10 g/l unless indicated otherwise; 2 h at 4° C.
Residues, ends and D or L forms follow the SMILES beside them.

- compound: "CCCCCCCCCCCCCC(=O)N[C@@H](COCc1cn(CCO[C@@H]2OC(CO)[C@@H](O)C(O)C2O)nn1)C(=O)N[C@@H](CCC(=O)O)C(=O)NCC(=O)O (stereo partly drawn) [Compound 3.7l]"
  extraction of AcrB: "extracting"
- compound: "CCCCCCCCCC(=O)N[C@@H](CO)C(=O)N[C@H](CCC(=O)O)C(=O)O [Compound 2.3d] (HELM PEPTIDE1{[CCCCCCCCCC(=O)[*:2]].S.[dE]}$$$$V2.0)"
  extraction of AcrB: "extracting"
- compound: "CCCCCCCCCCCCCC(=O)N[C@@H](CO)C(=O)N[C@H](CCC(=O)O)C(=O)O [Compound 2.3a] (HELM PEPTIDE1{[CCCCCCCCCCCCCC(=O)[*:2]].S.[dE]}$$$$V2.0)"
  extraction of AcrB: "extracting"

====

Biological target: BmrA (Bacillus subtilis, UniProt O06967)
Construct: His tag; made in house; host or cells: E. coli C41(DE3)
Sequence (O06967 whole entry): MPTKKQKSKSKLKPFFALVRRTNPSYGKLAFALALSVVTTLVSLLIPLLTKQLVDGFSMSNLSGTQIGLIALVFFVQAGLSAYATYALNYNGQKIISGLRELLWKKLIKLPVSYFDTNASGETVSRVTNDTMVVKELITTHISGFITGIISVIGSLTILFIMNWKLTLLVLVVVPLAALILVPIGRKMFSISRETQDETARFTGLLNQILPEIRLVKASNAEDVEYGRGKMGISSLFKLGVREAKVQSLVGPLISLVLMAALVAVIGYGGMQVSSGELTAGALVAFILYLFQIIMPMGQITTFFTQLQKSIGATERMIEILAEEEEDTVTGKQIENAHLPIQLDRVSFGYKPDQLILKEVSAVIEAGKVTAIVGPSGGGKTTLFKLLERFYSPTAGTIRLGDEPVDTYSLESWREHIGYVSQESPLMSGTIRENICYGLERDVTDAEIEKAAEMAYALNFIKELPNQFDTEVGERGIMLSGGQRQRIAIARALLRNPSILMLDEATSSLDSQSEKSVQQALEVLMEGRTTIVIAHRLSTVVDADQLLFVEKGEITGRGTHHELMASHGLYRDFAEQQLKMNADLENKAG
Test: Extraction of BmrA from membranes (SDS-PAGE of supernatant)
Set-up: species or system bacterial; overexpressed in E. coli C41DE3
Details: detergent 10 g/l unless indicated otherwise; 2 h at 4° C.
Residues, ends and D or L forms follow the SMILES beside them.
experimental.readout: extraction of BmrA

# annotated cases, reported extraction of BmrA shown
- compound: "CCCCCCCCCCCCC(CCCCCCCCCCCC)C(=O)N[C@@H](COCc1cn(CCO[C@@H]2OC(CO)[C@@H](O)C(O)C2O)nn1)C(=O)N[C@H](CCC(=O)O)C(=O)O (stereo partly drawn) [Compound 3.7j]"
  tested.system: "BmrA (Bacillus subtilis, UniProt O06967)"
  extraction of BmrA: "partially extracting"
- compound: "CCCCCCCCCCCCCC(=O)N[C@@H](CO)C(=O)N[C@H](CCC(=O)O)C(=O)O [Compound 2.3a] (HELM PEPTIDE1{[CCCCCCCCCCCCCC(=O)[*:2]].S.[dE]}$$$$V2.0)"
  tested.system: "BmrA (Bacillus subtilis, UniProt O06967)"
  extraction of BmrA: "extracting"
- compound: "CCCNC(=O)[C@H](CO)NCC(=O)O [Compound 1.4]"
  tested.system: "BmrA (Bacillus subtilis, UniProt O06967)"
  extraction of BmrA: "extracting"
- compound: "[2H]C([2H])([2H])C([2H])([2H])C([2H])([2H])C([2H])([2H])C([2H])([2H])C([2H])([2H])C([2H])([2H])C([2H])([2H])C([2H])([2H])C([2H])([2H])C([2H])([2H])C(=O)N[C@@H](CO)C(=O)N[C@H](CCC(=O)O)C(=O)O [Compound 2.3i]"
  tested.system: "BmrA (Bacillus subtilis, UniProt O06967)"
  extraction of BmrA: "extracting"
- compound: "CCCCCCCCCCCCC(=O)N[C@@H](CO)C(=O)N[C@H](CCC(=O)O)C(=O)O [Compound 2.3f]"
  tested.system: "BmrA (Bacillus subtilis, UniProt O06967)"
  extraction of BmrA: "extracting"

// fetch BmrA (Bacillus subtilis, UniProt O06967) extraction of BmrA for CCCCCCCCCCCCCC(=O)N[C@@H](CO)C(=O)N[C@H](CCC(=O)O)C(=O)O [Compound 2.3g] (HELM PEPTIDE1{[CCCCCCCCCCCCCC(=O)[*:2]].S.[dE]}$$$$V2.0)
extracting

// same read-out, input: CCCCCCCCCCCCCCCCCCC(=O)N[C@@H](COCc1cn(CCO[C@@H]2OC(CO)[C@@H](O)C(O)C2O)nn1)C(=O)N[C@H](CCC(=O)O)C(=O)O (stereo partly drawn) [Compound 3.7d]
partially extracting

====

Molecular target: BmrA (Bacillus subtilis, UniProt O06967)
Construct: His tag; made in house; host or cells: E. coli C41(DE3)
Test: Extraction of BmrA from membranes (SDS-PAGE of supernatant)
Set-up: species or system bacterial; overexpressed in E. coli C41DE3
Settings: detergent 10 g/l unless indicated otherwise; 2 h at 4° C.
Residues, ends and D or L forms follow the SMILES beside them. *: point of attachment. Palmitoyl = CCCCCCCCCCCCCCCC(=O)*

- molecule: "CCCCCCCCCCCCCCCCCCC(=O)N[C@@H](COCc1cn(CCO[C@@H]2OC(CO)[C@@H](O[C@H]3OC(CO)[C@@H](O)C(O)C3O)C(O)C2O)nn1)C(=O)N[C@H](CCC(=O)O)C(=O)O (some centres unmarked) [Compound 3.7f]"
  extraction of BmrA: "extracting"
- molecule: "CCCCCCCCCCCCCCCC(=O)NC(CC(=O)NC(CCC(=O)O)C(=O)O)C(=O)NC(CCC(=O)O)C(=O)O (centres unmarked) [Compound 4.6d] (Palmitoyl-Asp(Glu)-Glu-OH; configuration not given here)"
  extraction of BmrA: "extracting"
- molecule: "CCCCCCCCCCCCCC(=O)N[C@@H](COCc1cn(CCO[C@@H]2OC(CO)[C@@H](O)C(O)C2O)nn1)C(=O)N[C@@H](CCC(=O)O)C(=O)NCC(=O)O (some centres unmarked) [Compound 3.7l]"
  extraction of BmrA: "extracting"
